# Target entity: IDH1 wt/IDH1 R132H heterodimer (Homo sapiens (Human), UniProt O75874, R132H)
# Sequence (O75874 whole entry R132H): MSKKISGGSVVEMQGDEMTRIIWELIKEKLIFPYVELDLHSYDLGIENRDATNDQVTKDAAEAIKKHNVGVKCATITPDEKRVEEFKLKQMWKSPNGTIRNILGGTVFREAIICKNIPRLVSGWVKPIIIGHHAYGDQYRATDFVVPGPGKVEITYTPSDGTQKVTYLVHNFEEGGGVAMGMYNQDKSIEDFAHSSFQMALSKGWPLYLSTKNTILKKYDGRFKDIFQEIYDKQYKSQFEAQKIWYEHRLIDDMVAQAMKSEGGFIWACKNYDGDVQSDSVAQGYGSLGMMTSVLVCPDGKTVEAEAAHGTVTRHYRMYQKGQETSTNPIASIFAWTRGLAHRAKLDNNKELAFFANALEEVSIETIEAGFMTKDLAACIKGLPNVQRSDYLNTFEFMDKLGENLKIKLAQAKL
# Sequence (O75874 whole entry, stated change not applied): as the sequence (O75874 whole entry R132H) above, with H132R counted along it
# Protocol: In vitro assay for IDH1m R132H inhibitors, IDH1 wt/IDH1 R132H heterodimer, NADPH depletion (diaphorase/resazurin)
# Format: biochemical
# Assay conditions: IDH1 wt/R132H heterodimer, NADPH/NADP, not saturated; read-out: IDH1 wt/R132H NADPH/NADP IC50 not saturated
Readout name: IC50

// solved cases for IC50 follow
CC(C)(O)CNc1nc(Nc2ccnc(C#N)c2)nc(-c2cccc(C(F)(F)F)n2)n1 [Compound 288]    100 to 1000 nM
FC1(F)CC(Nc2nc(NC3CC(F)(F)C3)nc(-c3ccnc(C(F)(F)F)n3)n2)C1 [Compound 251]    50 to 100 nM
C#CCNc1nc(N[C@H](C)C2CC2)nc(-c2cccc(C(F)(F)F)n2)n1 [Compound 284]    100 to 1000 nM
FC(F)c1cncc(-c2nc(NC3CCC(F)(F)CC3)nc(NC3CCC(F)(F)CC3)n2)n1 [Compound 186]    < 50 nM
CC(Nc1nc(N[C@H](C)C2CC2)nc(-c2cccc(C(F)(F)F)n2)n1)c1cccc(F)c1 (stereo partly drawn) [Compound 28]    < 50 nM

IC50 in this record for CC(CC#N)Nc1nc(Nc2ccnc(C(C)(F)F)c2)nc(-c2cccc(C(F)(F)F)n2)n1 (stereo not drawn) [Compound 250] : 50 to 100 nM

IC50 in this record for N#Cc1cc(F)cc(Nc2nc(NC3CC(F)(F)C3)nc(-n3ccc(C(F)(F)F)n3)n2)c1 [Compound 140] : < 50 nM

IC50 in this record for COCCC(C)Nc1nc(N[C@H](C)C2CC2)nc(-c2cccc(C(F)(F)F)n2)n1 (stereo partly drawn) [Compound 233] : < 50 nM

IC50 in this record for FC1(F)CCC(Nc2nc(NC3CCOC3)nc(-c3cccc(C(F)(F)F)n3)n2)C1 (stereo not drawn) [Compound 52] : 50 to 100 nM

IC50 in this record for Cc1nc(-c2nc(NC3CC(F)(F)C3)nc(NC3CC(F)(F)C3)n2)c[nH]1 [Compound 317] : > 1000 nM

IC50 in this record for C[C@@H](Nc1nc(N[C@H](C)C2CC2)nc(-n2ccc(C(F)(F)F)n2)n1)C1CC1 [Compound 121] : < 50 nM

IC50 in this record for C[C@@H](Nc1nc(N[C@H](C)C2CC2)nc(-c2ccccn2)n1)C1CC1 [Compound 93] : > 1000 nM

###

# Target entity: IDH1-R132H homodimer enzyme (Homo sapiens (Human), UniProt O75874, R132H)
# Sequence (O75874 whole entry R132H): as the sequence (O75874 whole entry R132H) above
# Protocol: In vitro assay IDH1-R132H homodimer, NADPH depletion assay with NADPH/NADP preincubation
# Format: biochemical
# Assay conditions: 5 μM NADPH and 37.5 μM NADP
pIC50: −log10 of the molar value.
pIC50: recorded values

// solved cases for pIC50 follow
Cc1nc(-c2nc(NC3CC(F)(F)C3)nc(NC3CC(F)(F)C3)n2)c[nH]1    < 6.00
FC1(F)CCC(Nc2nc(NC3CCC(F)(F)CC3)nc(-c3cccc(Cl)n3)n2)CC1    6.00 to 7.00

pIC50 in this record for FC1(F)CC(Nc2nc(NC3CC(F)(F)C3)nc(-c3cccc(C(F)(F)F)n3)n2)C1 : > 7.30

pIC50 in this record for C[C@@H](Nc1cc(NC(C)(C)C)nc(-c2cccc(C(F)(F)F)n2)n1)C1CC1 : 6.00 to 7.00

pIC50 in this record for FC1(F)CC[C@@H](Nc2nc(N[C@@H]3CCC(F)(F)C3)nc(-c3cncc(C(F)(F)F)n3)n2)C1 : > 7.30

pIC50 in this record for Oc1ccc(F)c(-c2nc(NC3CCC(F)(F)CC3)nc(NC3CCC(F)(F)CC3)n2)n1 : < 6.00

pIC50 in this record for FC1(F)CC[C@@H](Nc2nc(Nc3ccnc(C(F)(F)F)c3)nc(-c3cncc(C(F)(F)F)n3)n2)C1 : > 7.30

pIC50 in this record for Cn1cc(-c2nc(NC3CCC(F)(F)CC3)nc(NC3CCC(F)(F)CC3)n2)c(C(F)(F)F)n1 : < 6.00

###

# Target entity: IDH1 R132C (Homo sapiens (Human), UniProt O75874, R132C)
# Sequence (O75874 whole entry R132C): as the sequence (O75874 whole entry R132H) above, with H132C counted along it
# Protocol: In vitro assay IDH1 R132C homodimer, NADPH depletion assay
pIC50: −log10 of the molar value.
pIC50: recorded values

// solved cases for pIC50 follow
C[C@@H](Nc1nc(NCc2ccccc2)nc(-c2cccc(C(F)(F)F)n2)n1)C1CC1    < 6.00
CC(Nc1nc(N[C@H](C)C2CC2)nc(-c2cccc(C(F)(F)F)n2)n1)c1ccccn1 (stereo partly shown)    < 6.00
C[C@@H](Nc1nc(NCC(C)(C)O)nc(-c2cccc(C(F)(F)F)n2)n1)C1CC1 (stereo in doubt)    < 6.00
C[C@@H](Nc1nc(NC2CCOC2)nc(-c2cccc(C(F)(F)F)n2)n1)C1CC1 (stereo partly shown)    6.00 to 7.00
C[C@@H](Nc1nc(N[C@H](C)C2CC2)nc(-c2cccc(Cl)n2)n1)C1CC1    7.00 to 7.30
C[C@@H](Nc1nc(N[C@H](C)C2CC2)nc(-c2cccc(O)c2)n1)C1CC1    7.00 to 7.30
C[C@@H](Nc1nc(N[C@H](C)C2CC2)nc(-c2ccccc2F)n1)C1CC1    6.00 to 7.00
CC(=O)CNc1nc(N[C@H](C)C2CC2)nc(-c2cccc(C(F)(F)F)n2)n1    < 6.00

pIC50 in this record for C[C@@H](Nc1nc(NC(C)(C)C#N)nc(-c2cccc(C(F)(F)F)n2)n1)C1CC1 : < 6.00

pIC50 in this record for C[C@@H](Nc1nc(NCc2ccccn2)nc(-c2cccc(C(F)(F)F)n2)n1)C1CC1 : < 6.00

###

# Target entity: IDH1-R132 homodimer enzyme (R132H) (Homo sapiens (Human), UniProt O75874, R132H)
# Sequence (O75874 whole entry R132H): as the sequence (O75874 whole entry R132H) above
# Protocol: In vitro assay IDH1-R132H homodimer, NADPH depletion assay
pIC50: −log10 of the molar value.
Readout name: pIC50

// solved cases for pIC50 follow
C[C@@H](Nc1nc(N[C@H](C)C2CC2)nc(-c2cccc(Cl)n2)n1)C1CC1    > 7.30
C[C@@H](Nc1nc(NC2CCC(F)(F)CC2)nc(-c2cccc(C(F)(F)F)n2)n1)C1CC1    > 7.30
CC(C#N)Nc1nc(N[C@H](C)C2CC2)nc(-c2cccc(C(F)(F)F)n2)n1 (some centres unmarked)    7.00 to 7.30
C[C@@H](Nc1nc(N[C@H](C)C2CCC2)nc(-c2cccc(C(F)(F)F)n2)n1)C1CCC1    7.00 to 7.30
C[C@@H](Nc1nc(N[C@H]2CCCC[C@@H]2O)nc(-c2cccc(C(F)(F)F)n2)n1)C1CC1    7.00 to 7.30
CC(Nc1nc(N[C@H](C)C2CC2)nc(-c2cccc(C(F)(F)F)n2)n1)c1ccccn1 (some centres unmarked)    < 6.00
CC(=O)CNc1nc(N[C@H](C)C2CC2)nc(-c2cccc(C(F)(F)F)n2)n1    < 6.00
FC(F)(F)c1cccc(-c2nc(NC3CC4CC4C3)nc(NC3CC4CC4C3)n2)n1 (centres unmarked)    > 7.30
CC(C)CNc1nc(NC(C)(C)C#N)nc(-c2cc(O)ccc2F)n1    < 6.00
C[C@@H](Nc1nc(NCC(C)(C)O)nc(-c2cccc(C(F)(F)F)n2)n1)C1CC1 (stereo in doubt)    < 6.00

With those in mind, consider the next compound.
pIC50 in this record for C[C@@H](Nc1nc(NC(=O)c2ccccc2)nc(-c2cccc(C(F)(F)F)n2)n1)C1CC1 : 6.00 to 7.00

###

# System: HT1080 cells
# Protocol: Cellular assay for IDH1m R132C inhibitors, 2-HG by LC-MS in HT1080 cells
# Assay type: cell-based
# Assay conditions: Homo sapiens, HT-1080
# Experimental: The following describes the experimental procedures that can be used to obtain data on column 5 of Table 4. Cells (HT1080 or U87MG) are grown in T125 flasks in DMEM containing 10% FBS, 1× penicillin/streptomycin and 500 ug/mL G418 (present in U87MG cells only). […] At 48 hours, 100 ul of media is removed from each well and analyzed by LC-MS for 2-HG concentrations. […] The plate is then read for luminescence with an integration time of 500 ms. […]
pIC50: −log10 of the molar value.
Readout name: pIC50

// solved cases for pIC50 follow
FC(F)c1cccc(-c2nc(NC3CCC(F)(F)CC3)nc(NC3CCC(F)(F)CC3)n2)n1 [Compound 224]    6.00 to 7.00
FC1(F)CC(CNc2nc(Nc3ccnc(C(F)(F)F)c3)nc(-c3cccc(C(F)(F)F)n3)n2)C1 [Compound 221]    < 6.00
FC1(F)CC(CNc2nc(NCC3CC(F)(F)C3)nc(-c3cccc(C(F)(F)F)n3)n2)C1 [Compound 216]    6.00 to 7.00
FC1(F)CC(Nc2nc(NC3CC(F)(F)C3)nc(-c3nc(C(F)(F)F)cs3)n2)C1 [Compound 128]    > 7.30
CC(C)(C)Nc1nc(NC(C)(C)C)nc(-c2cccc(C(F)(F)F)n2)n1 [Compound 4]    7.00 to 7.30

With those in mind, consider the next compound.
pIC50 in this record for N#CC1(c2cc(Nc3nc(NC4CCC(F)(F)CC4)nc(-c4cccc(C(F)(F)F)n4)n3)ccn2)CC1 [Compound 189] : 6.00 to 7.00

Each recorded value in this set is attributed to patent US10028961B2.
